Tested on: E-selectin
procedureText: ELISA: inhibition of E-selectin-IgG chimera binding to 2,3 sLe^x glycolipid
Design: species or system human
measurementSetup: inhibition of binding to 2,3 sLex glycolipid
assayMetric: IC50

{"compound": "C[C@@H]1O[C@@H](CCOc2ccccc2C(=O)O)[C@@H](O)[C@H](O)[C@@H]1O", "endpointValue": "~4 mM"}
{"compound": "CC(=O)NC1C(O)CC(OC2C(O)C(CO)OC(OCCOC3OC(C)C(O)C(O)C3O)C2O)(C(=O)O)OC1C(O)C(O)CO (stereo not shown)", "endpointValue": "> 4 mM"}
{"compound": "C[C@@H]1O[C@@H](OCCCCCCOS(=O)(=O)O)[C@@H](O)[C@H](O)[C@@H]1O [Compound 77, 6-O-sulfo-hexanyl-α-L-fucopyranoside]", "endpointValue": "2 to 3 mM"}
{"compound": "CC(C(=O)OCC1CO1)c1ccc2cc(OCC(O)CO)ccc2c1 (stereo not shown)", "endpointValue": "> 4 mM"}

====

Examples of compounds with documented pIC50 follow.
System: E-selectin
procedureText: ELISA: inhibition of E-selectin-IgG chimera binding to 2,3 sLe^x glycolipid
Design: species or system human
measurementSetup: inhibition of binding to 2,3 sLex glycolipid
pIC50: −log10 of the molar value.
assayMetric: pIC50

{"compound": "C[C@@H]1O[C@@H](CCOc2ccc3cc(OCC[C@@H]4O[C@@H](C)[C@@H](O)[C@@H](O)[C@@H]4O)c(C(=O)O)cc3c2)[C@@H](O)[C@H](O)[C@@H]1O", "assayMetric": "pIC50", "endpointValue": "< 2.40"}
{"compound": "C[C@@H]1O[C@@H](CCc2ccccc2C(=O)NC(Cc2ccccc2)C(=O)O)[C@@H](O)[C@H](O)[C@@H]1O (stereo partly drawn)", "assayMetric": "pIC50", "endpointValue": "< 2.40"}
{"compound": "COC(=O)C(C)c1ccc2cc(OCC[C@@H]3O[C@@H](C)[C@@H](OC(C)=O)[C@@H](OC(C)=O)[C@@H]3OC(C)=O)ccc2c1 (stereo partly drawn)", "assayMetric": "pIC50", "endpointValue": "< 2.40"}
{"compound": "C[C@@H]1O[C@@H](CCc2ccc(C(=O)NC(Cc3ccccc3)C(=O)O)cc2)[C@@H](O)[C@H](O)[C@@H]1O (stereo partly drawn)", "assayMetric": "pIC50", "endpointValue": "< 2.40"}
{"compound": "C[C@@H]1O[C@@H](CCOc2ccc(C(=O)O)cc2)[C@@H](O)[C@H](O)[C@@H]1O", "assayMetric": "pIC50", "endpointValue": "> 3.30"}
{"compound": "C[C@@H]1O[C@@H](CCc2cccc(C(=O)NC(Cc3ccccc3)C(=O)O)c2)[C@@H](O)[C@H](O)[C@@H]1O (stereo partly drawn)", "assayMetric": "pIC50", "endpointValue": "< 2.40"}

====

System: E-selectin
procedureText: ELISA: inhibition of E-selectin-IgG chimera binding to 2,3 sLe^x glycolipid
Parameters: species or system human
measurementSetup: inhibition of binding to 2,3 sLex glycolipid

{"molecule": "CCCOCC(CO[C@@H]1O[C@H](CO)[C@H](O)[C@H](OC(C)C(=O)O)[C@H]1O)O[C@@H]1O[C@@H](C)[C@@H](O)[C@@H](O)[C@@H]1O (stereo partly shown)", "target": "E-selectin", "IC50": "2000 µM"}
{"molecule": "COc1ccc(-c2c(C(=O)O)oc3cc(OCC[C@@H]4O[C@@H](C)[C@@H](O)[C@@H](O)[C@@H]4O)cc(O)c3c2=O)cc1", "target": "E-selectin", "IC50": "< 500 µM"}
{"molecule": "C[C@@H]1O[C@@H](CCOc2cc3c(OCC[C@@H]4O[C@@H](C)[C@@H](O)[C@@H](O)[C@@H]4O)cccc3cc2C(=O)O)[C@@H](O)[C@H](O)[C@@H]1O", "target": "E-selectin", "IC50": "> 4000 µM"}
{"molecule": "CC(OCCCCCCOC1O[C@@H](C)[C@@H](O)[C@@H](O)[C@@H]1O)C(=O)O (stereo partly shown)", "target": "E-selectin", "IC50": "2000 to 3000 µM"}
{"molecule": "C[C@@H]1O[C@@H](CCOc2ccc3cc(C(=O)O)ccc3c2)[C@@H](O)[C@H](O)[C@@H]1O", "target": "E-selectin", "IC50": "< 500 µM"}
{"molecule": "C[C@@H]1O[C@@H](CCOc2cccc(C(=O)O)c2)[C@@H](O)[C@H](O)[C@@H]1O", "target": "E-selectin", "IC50": "> 4000 µM"}
{"molecule": "CC(=O)NC1C(O)CC(OCCCCCCOC2OC(C)C(O)C(O)C2O)(C(=O)O)OC1C(O)C(O)CO (stereo not shown)", "target": "E-selectin", "IC50": "> 4000 µM"}

Cited source for all entries: patent US5658880A
